pIC50: −log10 of the molar value.
Assay read-out pIC50 on Coagulation factor XI (Homo sapiens, UniProt P03951); records merged from the literature.
Endpoint name: pIC50

Reference set (2 entries):
Cc1nc(C(C)n2cc(NC(=O)c3cncc(-c4c(OC(F)F)ccc(Cl)c4F)n3)cn2)cnc1N1C[C@H]2C[C@H]2C1=O (single isomer, unassigned) : 6.11
CC(c1cnc(N2CC3CC3C2=O)nc1)n1cc(NC(=O)c2cncc(-c3c(OC(F)F)ccc(Cl)c3F)n2)cn1 (single isomer, unassigned) : 5.56

[a] Cc1nc(C(C)n2cc(NC(=O)c3cncc(-c4c(C(F)F)ccc(Cl)c4F)n3)cn2)cnc1N1CCC1 (single isomer, unassigned)
[b] CC(c1cnc(N2C[C@H]3C[C@H]3C2=O)c2c1CCC2)n1cc(NC(=O)c2cncc(-c3c(C(F)F)ccc(Cl)c3F)n2)cn1 (single isomer, unassigned)
[c] O=C(Nc1cnn(Cc2cnc(N3C[C@H]4C[C@H]4[C@H]3CN3CC(O)(C(F)(F)F)C3)nc2)c1)c1cncc(-c2c(C(F)F)ccc(Cl)c2F)n1
[d] CC1C[C@@H](C(=O)Nc2ccc3nn(C)cc3c2)N2C(=O)C=C(c3c(-n4cnnn4)ccc(Cl)c3F)CC12 (mixture of isomers)
Sort the compounds on pIC50; start with the lowest figure. Sort the labels as requested; that list is your answer.
c, b, a, d
(c: 5.43, b: 6.04, a: 6.32, d: 7.75)

###

From various publications: IC50 for Coagulation factor XI (Homo sapiens).
Endpoint name: IC50 (nM)

COC(=O)c1ccc(NC(=O)Cn2cc(C(=N)N)c3cccc(C(=O)NCc4ccc(O)c(O)c4)c32)cc1 : 870

[A] NC[C@H]1CC[C@H](C(=O)N[C@@H](Cc2ccc(-c3cccnc3)cc2)C(=O)Nc2ccc(-c3nn[nH]n3)cc2)CC1
[B] COCCC(C(=O)Nc1ccc(C(N)=O)c(F)c1)n1cc(OC)c(-c2cc(Cl)ccc2OCC(F)(F)F)cc1=O (racemic)
Could you kindly indicate whether A or B has the higher IC50 value? Write the label of whichever entry you select.
B

###

Reported IC50 on Coagulation factor XI (Homo sapiens) for assorted molecules, compiled from publications.
Endpoint name: IC50 (nM)

These solved cases illustrate the format of a correct answer.
COC(=O)c1scc(-c2cnc(C(CC3CC3)c3ccc(-c4cc(Cl)ccc4-n4cnnn4)c[n+]3[O-])[nH]2)c1F (single isomer, unassigned) : 53
Nc1cc(-c2ccc(OC(F)(F)F)cc2)nn1CC(=O)N1CC[C@@]2(C1)OC(=O)Nc1ccc(Cl)c(F)c12 : 4140
NC(=O)c1ccc(NC(=O)[C@H](C[C@@H]2COCCO2)n2cc3c(cc2=O)-c2cc(Cl)ccc2C[C@@H](CO)OC3)cc1 (single isomer, unassigned) : 6
Nc1noc2cc(NC(=O)[C@@H]3CCC4CC(c5c(-n6cnnn6)ccc(Cl)c5F)=CC(=O)N43)ccc12 (single isomer, unassigned) : 8.9

[A] Nc1cc(C2CCCCC2)nn1CC(=O)N1CC[C@@]2(C1)OC(=O)Nc1ccc(Cl)c(F)c12
[B] Cc1cccc(-c2cc(N)n(CC(=O)N3CC[C@@]4(C3)OC(=O)Nc3ccc(Cl)c(F)c34)n2)c1
Higher IC50: A or B ? Mark your selection by writing its label.
B
(B: 611 nM, A: 426 nM)

###

Values of IC50 for Coagulation factor XI (Homo sapiens, UniProt P03951), collected from a number of published sources:
Endpoint name: IC50 (nM)

Cc1nc(N2C[C@H]3C[C@H]3C2=O)ncc1Cn1cc(NC(=O)c2nc(-c3c(OC(F)F)ccc(Cl)c3F)cnc2C)cn1 : 609
CC(c1ccc(N2CCC2)nc1)n1cc(NC(=O)c2cncc(-c3c(C(F)F)ccc(Cl)c3F)n2)cn1 (single isomer, unassigned) : 2580

[I] CC[C@@H](n1ncc(C(=O)N2CCC[C@@]3(C2)OC(=O)Nc2ccc(Cl)c(F)c23)c1N)C(F)(F)F (single isomer, unassigned)
[II] C[C@@H]1Cc2ccc(Cl)cc2-c2cc(=O)n([C@@H](C[C@@H]3COCCO3)C(=O)Nc3ccc4nn(C)nc4c3)cc2CO1 (single isomer, unassigned)
[III] CN(C)c1ccccc1Cn1ncc(C(=O)N2CCC[C@@]3(C2)OC(=O)Nc2ccc(Cl)c(F)c23)c1N
[IV] COC(=O)Nc1ccc2c(c1)NC(=O)C(C)(C)CCC[C@H](c1ccc(-c3cc(Cl)ccc3-n3cc(C(F)F)cn3)c[n+]1[O-])c1nc-2c(C)[nH]1
Could you please sort these 4 entries by IC50 from high to low? Output spec: labels arranged per the requested ranking.
III, I, II, IV

###

Collected literature values of IC50 measured for Coagulation factor XI (Homo sapiens).
Endpoint name: IC50 (µM)

Below are worked cases with known answers.
Nc1c(F)c(-c2ccc(F)cc2F)nn1CC(=O)N1CCC[C@@]2(C1)OC(=O)Nc1ccc(Cl)c(F)c12 : 0.164
COC(=O)Nc1ccc(-c2cnc(C(CC3CC3)c3ccc(-c4cc(Cl)ccc4-n4cnnn4)c[n+]3[O-])[nH]2)c(C)c1 (single isomer, unassigned) : 0.019
Cc1c(-c2ccc(C[C@H](NC(=O)[C@H]3CC[C@H](CN)CC3)C(=O)Nc3ccc4[nH]c(=O)[nH]c4c3)cc2)cc2nc(C3CCC3)[nH]c2c1F : 0.0009
COc1cn(C(C[C@@H]2CCCCO2)C(=O)Nc2ccc3nc(C(=O)O)cn3c2)c(=O)cc1-c1cc(Cl)ccc1OCC(F)(F)F (stereo partly drawn) : 0.0022

[1] O=C(Nc1cnn(Cc2cnc(N3CCC3)nc2)c1)c1cncc(-c2c(OC(F)F)ccc(Cl)c2F)n1
[2] Cc1ncc(-c2c(C#N)ccc(Cl)c2F)nc1C(=O)Nc1cnn(C(C)c2cnc(N3C[C@H]4C[C@H]4C3=O)c(C)n2)c1 (single isomer, unassigned)
[3] Nc1cc(C2CC(F)(F)C2)nn1CC(=O)N1CC[C@@]2(C1)OC(=O)Nc1ccc(Cl)c(F)c12
Ordering criterion: IC50; begin with the maximum. Write out the labels following the order that was asked for.
2, 3, 1

[1] Cc1cc(Cn2cc(NC(=O)c3nc(-c4c(C(F)F)ccc(Cl)c4F)cnc3C(C)O)cn2)nnc1N1C[C@H]2C[C@H]2C1=O (single isomer, unassigned)
[2] O=C1Nc2ccc(Cl)c(F)c2[C@@]2(CCCN(C(=O)c3cnn([C@@H](CC4CC4)c4ccccc4)c3)C2)O1 (single isomer, unassigned)
Short answer wanted: higher IC50, 1 or 2 ? Return value: the label identifying the chosen record.
2

###

We begin with pIC50 values for Coagulation factor XI (Homo sapiens, UniProt P03951), as collected from the published literature.
pIC50: −log10 of the molar value.
Endpoint name: pIC50

[P] NC(=O)c1cc(N2CCC2)ncc1Cn1cc(NC(=O)c2cncc(-c3c(C(F)F)ccc(Cl)c3F)n2)cn1
[Q] Nc1c(C(=O)N2CCC[C@@]3(C2)OC(=O)Nc2ccc(Cl)c(F)c23)cnn1Cc1ccccc1Cl
[R] [2H]c1nnnn1-c1ccc(Cl)c(F)c1C1=CC(=O)N2C(CCC2C(=O)Nc2ccc3c(c2)C2(CC2)C(=O)N3)C1 (stereo not shown)
[S] COC(=O)Nc1ccc(-c2nc([C@H](Cc3ccccc3)c3ccc(-c4cc(Cl)ccc4-n4cnnn4)c[n+]3[O-])[nH]c2Cl)cc1
Please list these in order of increasing pIC50. Thank you! Would you mind listing the labels in the order asked for?
P, Q, R, S
(P: 6.09, Q: 6.60, R: 7.37, S: 8.87)

###

pIC50: −log10 of the molar value.
pIC50 for Coagulation factor XI (Homo sapiens), merged from several publications.
Endpoint name: pIC50

See these solved cases before continuing.
[2H]C([2H])(O)c1ncc(-c2c(C(F)F)ccc(Cl)c2F)nc1C(=O)Nc1cnn([C@@H](C)c2cnc(N3C[C@H]4C[C@H]4C3=O)nc2)c1 : 6.24
COCCC(C(=O)Nc1csc(C(=O)O)c1)n1cc2c(cc1=O)-c1cc(Cl)ccc1CC1(CC1)NC2=O (stereo not shown) : 7.46
NC(=O)c1ccc(NC(=O)C(C[C@@H]2CCCCO2)n2cc3c(cc2=O)-c2cc(Cl)ccc2CC(C(F)(F)F)OC3)cc1 (mixture of isomers) : 8.55
O=C(Cn1c2c(c(-c3cc(Cl)ccc3Cl)cc1=O)C(=O)CC2)Nc1ccc(-c2nnn[nH]2)cc1 : 6.64
Cc1cccc(-n2ncc(C(=O)N3CCC[C@@]4(C3)OC(=O)Nc3ccc(Cl)c(F)c34)c2N)c1C : 5.71
O=C1Nc2ccc(Cl)c(F)c2[C@@]2(CCCN(C(=O)c3nnc(C(CC(F)(F)F)c4ccccc4)[nH]3)C2)O1 (single isomer, unassigned) : 6.44
O=C(O)c1ccc(NC(=O)[C@@H]2CCC3CC(c4c(-n5cnnn5)ccc(Cl)c4F)=CC(=O)N32)cc1F (single isomer, unassigned) : 8.60
O=C1Nc2ccc(Cl)c(F)c2[C@@]2(CCCN(C(=O)c3cnc(C(c4ccc(F)cc4)C(F)(F)F)[nH]3)C2)O1 (single isomer, unassigned) : 5.57
COCCC(C(=O)Nc1ccc2[nH]c(=O)[nH]c2c1)n1cc2c(cc1=O)-c1cc(Cl)ccc1CC1(CC1)NC2=O (stereo not shown) : 7.74
C[C@@H]1Cc2ccc(Cl)cc2-c2cc(=O)n(C(C[C@H](C)OC(F)F)C(=O)Nc3ccc(C(N)=O)cc3)cc2CO1 (mixture of isomers) : 8.43

[P] CC(=O)Nc1ccc(-n2ncc(C(=O)N3CCC[C@@]4(C3)OC(=O)Nc3ccc(Cl)c(F)c34)c2N)cc1
[Q] CCc1ncc(-c2c(C(F)F)ccc(Cl)c2F)nc1C(=O)Nc1cnn(C(C)c2cc(C)c(N3C[C@H]4C[C@H]4C3=O)nn2)c1 (single isomer, unassigned)
[R] CO[C@@H](C)CC(C(=O)Nc1ccc(C(N)=O)cc1)n1cc2c(cc1=O)-c1cc(Cl)ccc1C[C@@H](C(F)(F)F)OC2 (mixture of isomers)
[S] COc1cc(C(C)n2cc(NC(=O)c3nc(-c4c(C(F)F)ccc(Cl)c4F)cnc3C)cn2)cnc1N1C[C@H]2C[C@H]2C1=O (single isomer, unassigned)
[T] Cc1ccc(-n2ncc(C(=O)N3CCC[C@@]4(C3)OC(=O)Nc3ccc(Cl)c(F)c34)c2N)cc1
Hey, quick one: sort these by pIC50, low to high? Note for the reader: the ranking is given by listing the labels in the order requested.
P, T, Q, S, R
(P: 5.14, T: 5.52, Q: 5.91, S: 6.38, R: 8.29)

[A] Cc1ncc(-c2c(C(F)F)ccc(Cl)c2F)nc1C(=O)Nc1cnn(Cc2ccc(N3C[C@H]4C[C@H]4C3=O)nn2)c1
[B] Nc1c(C(=O)N2CCC[C@@]3(C2)OC(=O)Nc2ccc(Cl)c(F)c23)cnn1C1CCCCC1
For the pair A and B , which member has the lower pIC50 number? Identify your pick by its label.
A
(A: 5.15, B: 5.97)
